System: SW620 cells
Experiment: CCK-8 proliferation assay, SW620
Assay type: cell-based
Conditions: Homo sapiens, SW-620; 24 h treatment
Endpoint Name: IC50 (nM)
Kindly provide the numeric value in nM only, without the unit symbol.

Inquiry: Requested read-out: IC50. Entry: `COC(=O)[C@H](C)NC(=O)N[C@]1(C)CC[C@]2(C)CC[C@]3(C)C4=CC=C5C(=CC(=O)C(O)=C5C)[C@]4(C)CC[C@@]3(C)[C@@H]2C1`
Reply text: 528

Now look at this one.
Inquiry: I am curious: what IC50 value has been reported for CC1=C(O)C(=O)C=C2C1=CC=C1[C@@]2(C)CC[C@@]2(C)[C@@H]3C[C@](C)(C(=O)O)CC[C@]3(C)CC[C@]12C [Celastrol, reference compound] ?
Reply text: 690
